assayedSystem: T1, AibR (UniProt Q1D4I5 1-228)
T1 sequence: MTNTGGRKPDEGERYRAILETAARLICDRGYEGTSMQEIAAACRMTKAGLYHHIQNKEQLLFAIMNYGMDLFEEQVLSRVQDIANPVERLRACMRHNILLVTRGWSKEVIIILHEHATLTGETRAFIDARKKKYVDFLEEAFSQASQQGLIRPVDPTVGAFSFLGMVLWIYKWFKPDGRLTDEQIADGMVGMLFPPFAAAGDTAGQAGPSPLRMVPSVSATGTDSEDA
assayText: EMSA
observationType: Kd (nM)
Respond numerically; units are nM and should not be typed.

**Query** Return the recorded Kd value; entry: aibR-Cy5 40 bp (dsDNA) DNA 1: CCGCGTCGGGCGCTGCTACCTACCGGTCGGTAGGTCTCCA DNA 2: TGGAGACCTACCGACCGGTAGGTAGCAGCGCCCGACGCGG
**Result** 233
